target: UniProtKB P12931
Sequence (P12931 whole entry, looked up, species assumed): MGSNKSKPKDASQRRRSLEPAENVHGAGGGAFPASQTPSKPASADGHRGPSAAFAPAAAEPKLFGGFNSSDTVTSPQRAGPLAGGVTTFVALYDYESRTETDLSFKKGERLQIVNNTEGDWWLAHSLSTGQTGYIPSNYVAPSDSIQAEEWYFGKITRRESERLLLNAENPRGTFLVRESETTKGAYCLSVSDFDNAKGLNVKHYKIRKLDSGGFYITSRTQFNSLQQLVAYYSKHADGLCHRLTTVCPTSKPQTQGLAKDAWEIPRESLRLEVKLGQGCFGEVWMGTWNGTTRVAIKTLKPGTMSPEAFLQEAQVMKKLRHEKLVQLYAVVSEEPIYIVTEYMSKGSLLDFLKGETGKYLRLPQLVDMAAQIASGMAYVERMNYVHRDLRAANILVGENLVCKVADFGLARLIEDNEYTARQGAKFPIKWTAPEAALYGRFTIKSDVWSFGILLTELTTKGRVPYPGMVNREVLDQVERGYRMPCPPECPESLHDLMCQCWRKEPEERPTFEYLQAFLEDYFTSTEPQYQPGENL
measured property: IC50 (nM)
Provide only the numeric value, understood in nM.

For reference, reported IC50 for C=CC(=O)N[C@H]1CC[C@@H](n2nc(-c3ccc(Oc4ccccc4)cc3)c3c(N)ncnc32)CC1 [Compound 9] stands at 14.3

====

Entries with reported IC50 on UniProt P06239
Sequence (P06239 whole entry, species assumed): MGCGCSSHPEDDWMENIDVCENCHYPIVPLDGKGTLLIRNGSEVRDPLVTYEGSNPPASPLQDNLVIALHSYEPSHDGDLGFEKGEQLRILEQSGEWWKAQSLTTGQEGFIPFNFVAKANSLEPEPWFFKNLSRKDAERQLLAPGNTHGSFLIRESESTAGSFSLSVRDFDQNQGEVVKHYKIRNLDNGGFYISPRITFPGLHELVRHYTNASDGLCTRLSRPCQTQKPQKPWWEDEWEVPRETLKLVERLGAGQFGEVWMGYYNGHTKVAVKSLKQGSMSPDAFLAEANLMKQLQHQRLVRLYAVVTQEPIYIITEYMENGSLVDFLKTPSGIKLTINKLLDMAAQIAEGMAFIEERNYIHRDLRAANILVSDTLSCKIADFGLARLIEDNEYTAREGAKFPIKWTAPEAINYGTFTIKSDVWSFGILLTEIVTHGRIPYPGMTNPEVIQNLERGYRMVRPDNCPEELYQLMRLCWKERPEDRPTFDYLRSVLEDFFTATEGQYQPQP
Provide only the numeric value, understood in µM.

Nc1ncnc2c1c(-c1ccc(Oc3ccccc3)cc1)nn2C1CCN(C(=O)/C=C/CN2CCOCC2)CC1 [Compound 20] tested on UniProt P06239 gave IC50: 0.0986

C=CC(=O)N(C)CCn1nc(-c2ccc(Oc3ccccc3)cc2)c2c(N)ncnc21 [Compound 19] tested on UniProt P06239 gave IC50: 0.00662

CN(C)C/C=C/C(=O)N1CCC[C@H]1Cn1nc(-c2ccc(Oc3ccccc3)cc2)c2c(N)ncnc21 [Compound 12] tested on UniProt P06239 gave IC50: 0.00597

C=CC(=O)NCCn1nc(-c2ccc(Oc3ccccc3)cc2)c2c(N)ncnc21 [Compound 23] tested on UniProt P06239 gave IC50: 0.208

More entries:
Nc1ncnc2c1c(-c1ccc(Oc3ccccc3)cc1)nn2[C@H]1CC[C@@H](NC(=O)/C=C/CN2CCOCC2)CC1 [Compound 25] tested on UniProt P06239 gave IC50: 0.0258

CN(C)C/C=C/C(=O)N[C@H]1CC[C@H](n2nc(-c3ccc(Oc4ccccc4)cc3)c3c(N)ncnc32)CC1 [Compound 18] tested on UniProt P06239 gave IC50: 0.00076
